Tested on: DeltatarO mutant
ASSAY_PROCEDURE: S. aureus survival, RN4220 and DeltatarO strains – OD600, teichoic acid synthesis inhibitors, primary screen (AID 463173)
ASSAY_CONDITIONS: S. aureus RN4220 wild type/DeltatarO growth, OD600, 18 h, screened at 18.75 µg/mL (by protocol)
In all, about 52,000 compounds went through this assay and about 4,300 (8.3%) were called active. No stated cut-off is given here; in the data, active means survival mostly below about 52% (no sharp cut-off); inactive means mostly above about 56%. The list comes from a sample in which actives are over-represented; it also holds close analogues and randomly drawn compounds.
Possible outcomes: YES = active, NO = inactive

| COMPOUND | ASSAYED_SYSTEM | LABEL_VALUE |
| --- | --- | --- |
| Cc1cc(N2CCC(C)CC2)nc2ccc(NC(=O)/C=C/c3cccc(Cl)c3)cc12 | DeltatarO mutant | YES |
| COc1ccc(-c2cn3nc(N4CCCC(C(=O)Nc5cccc(Cl)c5C)C4)sc3n2)cc1 (stereo not drawn) | DeltatarO mutant | NO |
| CCOc1nc(NC(=O)NS(=O)(=O)Oc2cccc(F)c2)nc(-c2ccccc2)n1 | DeltatarO mutant | NO |

* * *

System: DeltatarO mutant
ASSAY_PROCEDURE: S. aureus survival, RN4220 and DeltatarO strains – OD600, teichoic acid synthesis inhibitors, primary screen (AID 463173)
ASSAY_CONDITIONS: S. aureus RN4220 wild type/DeltatarO growth, OD600, 18 h, hits give low values, screened at 18.75 µg/mL (by protocol)
Screen size: about 52,000 compounds; about 4,300 (8.3%) were called active. Shown is part of a subset that was picked to be rich in actives.
Please use the following survival ranges when assigning a class: lower range (below 50%), middle range (50% to below 70%), upper range (70% or more)

| COMPOUND | LABEL_VALUE |
| --- | --- |
| COc1ccc(CCNc2nc(SCc3cccc(Cl)c3)nc3ccccc23)cc1OC | upper range |
| Cc1ccc(NC(=O)c2c3c(nc4ccccc24)C(=O)N(C2CCCCC2)C3)cc1F | upper range |
| CCOc1ccccc1N(CC)C(=O)c1noc2c1COc1ccc(C)cc1-2 | middle range |
| O=C(COC(=O)c1ccccn1)Nc1ccccc1 | upper range |
| Cc1ccccc1C(=O)Nc1ccc(S(=O)(=O)N2CCC(c3nc4ccccc4s3)CC2)cc1 | lower range |
| O=C(NCc1ccccc1Cl)C1CCCN(S(=O)(=O)c2cccc3nsnc23)C1 (stereo unspecified) | upper range |
| COc1ccc(OCCCCn2c(-c3ccc(Cl)cc3)nc3ccccc3c2=O)cc1 | lower range |
| O=c1c2ccccc2nc(-c2ccc(Cl)cc2)n1CCCCOc1ccc(F)cc1 | lower range |
| Cc1ccc(CNC(=O)C2CCN(C(=O)N3CC(C)Oc4ccc(Cl)cc43)CC2)cc1 (stereo unspecified) | middle range |
| Cc1cn2c(=O)cc(COc3ccc(Cl)cc3)nc2s1 | middle range |
| COc1ccc(CNC(=O)c2nc(SC(C)C)ncc2Cl)cc1 | upper range |
| CCc1ccc(OCCCn2c(-c3ccc(Cl)cc3)nc3ccccc3c2=O)cc1 | lower range |
| CCOc1ccc(N2CC(c3nc4ccccc4n3Cc3ccccc3F)CC2=O)cc1 (stereo unspecified) | upper range |
| Cc1ccc(C)c(NC(=O)c2nc(S(=O)(=O)Cc3ccc(F)cc3)ncc2Cl)c1 | upper range |
| CCCCSc1ncnc2c1sc1nc(N3CCOCC3)c3c(c12)CCCC3 | upper range |
| N#CC(C#N)=C(C(C#N)=C1Nc2ccccc2N1)c1ccccc1F | middle range |
| CCN(CC)S(=O)(=O)c1ccc2c(c1)N(CC(=O)NCCCN1CCN(c3cc(Cl)ccc3C)CC1)C(=O)CO2 | middle range |
| COc1ccccc1OCCCCn1c(-c2ccc(Cl)cc2)nc2ccccc2c1=O | middle range |
| CCOc1ccc(N2CC(c3nc4ccccc4n3CCOc3ccccc3)CC2=O)cc1 (stereo unspecified) | lower range |
| COc1ccc(/C=C/C(=O)Nc2sc(C)c(C)c2C(=O)O)cc1 | middle range |
| CC(=O)Nc1ccc(NC(=O)c2nc(S(=O)(=O)Cc3ccc(F)cc3)ncc2Cl)cc1 | lower range |
| CNC(=O)COc1ccc(NC(=O)CCn2nc(-c3ccc(C)cc3)c3ccccc3c2=O)cc1 | upper range |
